Data origin: patent US10618903B2

Listed here: items and their measured Papp at 2 h, 3 µM.
Assay text: Caco Permeability Assay
Type: in vitro ADME
Experimental context: human, Caco-2, Caco-2 cells, 3 μM compound
Note: unit ×10⁻⁶ cm/s is implicit; provide only the numeric part.

CC(C)(O)[C@H](F)CNC(=O)c1cnc(-c2cnc3cc(Cl)cnn23)cc1Nc1cnn(CC(F)F)c1 [Example 262]    2.6
CC(C)(C)CCNC(=O)c1cnc(-c2cnc3cc(Cl)cnn23)cc1NC1COC1 [Example 192]    29.9
CC(C)(O)CCNC(=O)c1cnc(-c2cnn3cc(Cl)cnc23)cc1NC1COC1 [Example 47]    17.3

Query string: Could you share which Papp at 2 h, 3 µM value was measured for CCn1cc(Nc2cc(-c3cnc4cc(Cl)cnn34)ncc2C(=O)NC[C@@H](F)C(C)(C)O)cn1 [Example 266] ?
Result string: 2.9
